The reported measurements were obtained from PubChem BioAssay AID2060886.

Measured pIC50 values are reported for all entries that follow.
Tested on: 653999-131-R-J2-PDC complex spheroids, growth inhibition
Assay: Anticancer human tumor 653999-131-R-J2-PDC patient-derived lung adenocarcinoma cell line growth inhibition [RAS]
Details: curve of first compound; second compound 0.03 µM
pIC50: −log10 of the molar value.

* C=CC(=O)N1CCN(c2nc(OCC3CCCN3C)nc3c(F)c(-c4nc(N)cc(C)c4C(F)(F)F)c(Cl)cc23)C(C)C1 (centres undefined) + CCn1c(-c2cc(N3CCN(C)CC3)cnc2C(C)OC)c2c3cc(ccc31)-c1csc(n1)CC(NC(=O)C1CC1C)C(=O)N1CCCC(N1)C(=O)OCC(C)(C)C2 | > 8.50
* CC(=O)OC12COC1CC(O)C1(C)C(=O)C(O)C3=C(C)C(OC(=O)C(O)C(NC(=O)OC(C)(C)C)c4ccccc4)CC(O)(C(OC(=O)c4ccccc4)C21)C3(C)C (centres undefined) + CCn1c(-c2cc(N3CCN(C)CC3)cnc2C(C)OC)c2c3cc(ccc31)-c1csc(n1)CC(NC(=O)C1CC1C)C(=O)N1CCCC(N1)C(=O)OCC(C)(C)C2 | > 7.50
* CC(C)NCC(C(=O)N1CCN(c2ncnc3c2C(C)CC3O)CC1)c1ccc(Cl)cc1 (centres undefined) + CCn1c(-c2cc(N3CCN(C)CC3)cnc2C(C)OC)c2c3cc(ccc31)-c1csc(n1)CC(NC(=O)C1CC1C)C(=O)N1CCCC(N1)C(=O)OCC(C)(C)C2 | > 7.50

QUERY: pIC50 lookup needed for CC(C)NCC(C(=O)N1CCN(c2ncnc3c2C(C)CC3O)CC1)c1ccc(Cl)cc1 (centres undefined) + CCn1c(-c2cccnc2C(C)OC)c2c3cc(ccc31)N1CCOC(CC(NC(=O)C(C(C)C)N(C)C(=O)C3(F)CCN(C(=O)C#CC(C)(C)N(C)C)CC3)C(=O)N3CCCC(N3)C(=O)OCC(C)(C)C2)C1 , thanks.
RESULT: 5.82

----------
Tested on: 653999-131-R-J2-PDC complex spheroids, growth inhibition
Test: Anticancer human tumor 653999-131-R-J2-PDC cell line growth inhibition [RAS];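 further: spheroids exposed to the agents for seven days before the readout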
Details: curve of first compound; second compound 0.3 µM
value type: IC50

Illustrative cases are given below, each with its answer.
- C=CC(=O)N1CCN(c2nc(OCC3CCCN3C)nc3c(F)c(-c4nc(N)cc(C)c4C(F)(F)F)c(Cl)cc23)C(C)C1 (stereo not drawn) + CCn1c(-c2cccnc2C(C)OC)c2c3cc(ccc31)N1CCOC(CC(NC(=O)C(C(C)C)N(C)C(=O)C3(F)CCN(C(=O)C#CC(C)(C)N(C)C)CC3)C(=O)N3CCCC(N3)C(=O)OCC(C)(C)C2)C1: > 1 µM
- C[C@@H](NC(=O)c1ncnc(N)c1Cl)c1ncc(C(=O)Nc2cc(C(F)(F)F)c(Cl)cn2)s1 + CCn1c(-c2cccnc2C(C)OC)c2c3cc(ccc31)N1CCOC(CC(NC(=O)C(C(C)C)N(C)C(=O)C3(F)CCN(C(=O)C#CC(C)(C)N(C)C)CC3)C(=O)N3CCCC(N3)C(=O)OCC(C)(C)C2)C1: > 10 µM

Alright, here's another compound for you.
QUERY: Record request: IC50 value, item Cc1nc(N2CCC3(CC2)COC(C)C3N)c(CO)nc1Sc1ccnc(N)c1Cl (stereo not drawn) + CCn1c(-c2cccnc2C(C)OC)c2c3cc(ccc31)N1CCOC(CC(NC(=O)C(C(C)C)N(C)C(=O)C3(F)CCN(C(=O)C#CC(C)(C)N(C)C)CC3)C(=O)N3CCCC(N3)C(=O)OCC(C)(C)C2)C1
RESULT: > 10 µM
